- target: UniProt:P49840
- Sequence (P49840 whole entry): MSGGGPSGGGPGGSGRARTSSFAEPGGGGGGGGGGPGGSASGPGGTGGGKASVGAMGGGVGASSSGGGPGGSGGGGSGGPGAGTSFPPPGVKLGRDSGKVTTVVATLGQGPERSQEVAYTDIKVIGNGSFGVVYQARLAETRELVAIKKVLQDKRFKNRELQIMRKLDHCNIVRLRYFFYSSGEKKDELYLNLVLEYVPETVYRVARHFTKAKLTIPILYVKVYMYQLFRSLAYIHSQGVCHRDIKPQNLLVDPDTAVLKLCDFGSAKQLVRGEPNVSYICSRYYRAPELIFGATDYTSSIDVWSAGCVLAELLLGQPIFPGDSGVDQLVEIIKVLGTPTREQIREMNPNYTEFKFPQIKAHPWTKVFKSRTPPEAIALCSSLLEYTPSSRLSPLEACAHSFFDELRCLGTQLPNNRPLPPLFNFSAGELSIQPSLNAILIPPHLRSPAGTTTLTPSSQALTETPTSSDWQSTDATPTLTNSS
- measurement_notes: GSK3α TR-FRET kinase assay
- Format: biochemical
- details: 1 nM GSK3α, 4 μM ATP, 30 minute preincubation, Table 16; read-out: GSK3-A TR-FRET BIOCHEMICAL (TR-FRET)
Known IC50 of a selection of molecules

Consider the reported IC50 for these molecules:
Query: // query IC50 value for entry CC[C@@]1(c2cccc(C(F)(F)F)c2)C2=C(C[C@@]3(CCNC3=O)CC2=O)Nc2n[nH]cc21
Reply: ≤ 100 nM

Query: GET /values?readout=IC50&item= CCC1(c2cccc(C(F)(F)F)c2)C2=C(CNC2=O)Nc2n[nH]cc21 (stereo not shown) [Compound 917158]
Reply: 100 to 1000 nM

Query: Form field: reported IC50 of CC[C@]1(c2cccc(C3CN(C(C)=O)C3)c2)C2=C(CC(C)(C)CC2=O)Nc2n[nH]cc21
Reply: > 5000 nM

---
Query: Looking for the measured IC50 of CCC1(c2cccc(-c3cnnc(C)c3)c2)C2=C(CC(C)(C)CC2=O)Nc2n[nH]cc21 (stereo not shown) , can you help?
Reply: ≤ 100 nM
